Where do these numbers come from? They come from ChEMBL document CHEMBL1140152.

# experimental-target: Disks large homolog 4 (Homo sapiens)
# assay-notes: Binding affinity to human PSD95 domain PDZ1 expressed in Escherichia coli BL21-DE3 by fluorescence polarization assay
# Sequence (P78352 whole entry, the tested form may be a part): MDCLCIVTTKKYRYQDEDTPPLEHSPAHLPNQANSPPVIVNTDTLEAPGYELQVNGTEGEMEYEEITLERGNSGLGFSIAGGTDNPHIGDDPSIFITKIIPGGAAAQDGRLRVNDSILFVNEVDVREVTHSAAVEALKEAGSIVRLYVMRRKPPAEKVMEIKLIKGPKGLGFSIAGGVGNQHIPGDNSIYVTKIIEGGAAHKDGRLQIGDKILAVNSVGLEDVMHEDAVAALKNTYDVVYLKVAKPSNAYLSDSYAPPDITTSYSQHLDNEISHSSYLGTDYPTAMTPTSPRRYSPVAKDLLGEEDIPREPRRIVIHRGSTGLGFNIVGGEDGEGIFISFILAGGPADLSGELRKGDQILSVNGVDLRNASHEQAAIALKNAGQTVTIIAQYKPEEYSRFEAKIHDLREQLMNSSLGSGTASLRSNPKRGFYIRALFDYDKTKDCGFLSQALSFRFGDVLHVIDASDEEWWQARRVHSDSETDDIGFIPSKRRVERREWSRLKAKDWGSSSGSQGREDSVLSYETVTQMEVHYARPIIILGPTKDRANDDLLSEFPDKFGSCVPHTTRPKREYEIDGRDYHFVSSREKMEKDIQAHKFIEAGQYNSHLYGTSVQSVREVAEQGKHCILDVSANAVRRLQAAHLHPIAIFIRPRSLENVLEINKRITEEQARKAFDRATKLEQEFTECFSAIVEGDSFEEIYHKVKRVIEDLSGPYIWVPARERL
assay-endpoint: Ki (µM)
Return type: number; implicit unit µM.

Worked examples, 2 compounds total:
1. CC(C)[C@H](NC(=O)[C@H](C)NC(=O)[C@@H](NC(=O)[C@H](CCC(=O)O)NCCc1ccc2ccccc2c1)[C@@H](C)O)C(=O)O    1
2. CC(C)[C@H](NC(=O)[C@H](C)NC(=O)[C@@H](NC(=O)[C@H](CCC(=O)O)NCC1CCCCC1)[C@@H](C)O)C(=O)O    1

// next entry
The compound listed as CN[C@@H](CCC(=O)O)C(=O)N[C@H](C(=O)N[C@@H](C)C(=O)N[C@H](C(=O)O)C(C)C)[C@@H](C)O shows Ki equal to 11

* * *

# experimental-target: Disks large homolog 4 (Homo sapiens, UniProt P78352)
# assay-notes: Binding affinity to human PSD95 domain PDZ2 expressed in Escherichia coli BL21-DE3 by fluorescence polarization assay
# Sequence (P78352 whole entry, looked up, the tested form may be a part): as the sequence (P78352 whole entry, the tested form may be a part) above
The source made the active and inactive calls. The rule behind the calls is not given here. Where a SMILES comes first, the peptide text is derived from it. [ ]: non-standard residue; d: D form. NMeV = CN[C@H](C(=O)O)C(C)C; NMeS = CN[C@@H](CO)C(=O)O; hSer = N[C@@H](CCO)C(=O)O; Abu = CC[C@H](N)C(=O)O; Aib = CC(C)(N)C(=O)O
assay-endpoint: Activity

1. CC(C)[C@H](NC(=O)[C@H](CC(=O)O)NC(=O)[C@H](CCO)NC(=O)[C@@H](N)CCC(=O)O)C(=O)O (H-E[hSer]DV-OH)    inactive
2. CC(C)(NC(=O)[C@H](CC(=O)O)NC(=O)[C@H](CO)NC(=O)[C@@H](N)CCC(=O)O)C(=O)O (H-ESD[Aib]-OH)    inactive
3. CC[C@H](NC(=O)[C@H](CC(=O)O)NC(=O)[C@H](CO)NC(=O)[C@@H](N)CCC(=O)O)C(=O)O (H-ESD[Abu]-OH)    inactive
4. CC(C)[C@H](NC(=O)[C@H](CC(=O)O)NC(=O)[C@@H](NC(=O)[C@@H](N)CCC(=O)O)[C@H](C)CO)C(=O)O    inactive
5. CC(C)[C@H](NC(=O)[C@H](CC(=O)O)NC(=O)[C@H](CO)N(C)C(=O)[C@@H](N)CCC(=O)O)C(=O)O (H-E[NMeS]DV-OH)    inactive
6. CC(C)[C@H](NC(=O)[C@H](CC(=O)O)NC(=O)[C@@H](NC(=O)[C@@H](N)CCC(=O)O)C(C)(C)CO)C(=O)O    inactive

// CC(C)[C@@H](C(=O)O)N(C)C(=O)[C@H](CC(=O)O)NC(=O)[C@H](CO)NC(=O)[C@@H](N)CCC(=O)O (H-ESD[NMeV]-OH) : Activity value = inactive
